- Measurement Target: CB1 receptor (Homo sapiens, UniProt P21554)
- Construct: expressed in transfected cells
- Sequence (P21554 whole entry): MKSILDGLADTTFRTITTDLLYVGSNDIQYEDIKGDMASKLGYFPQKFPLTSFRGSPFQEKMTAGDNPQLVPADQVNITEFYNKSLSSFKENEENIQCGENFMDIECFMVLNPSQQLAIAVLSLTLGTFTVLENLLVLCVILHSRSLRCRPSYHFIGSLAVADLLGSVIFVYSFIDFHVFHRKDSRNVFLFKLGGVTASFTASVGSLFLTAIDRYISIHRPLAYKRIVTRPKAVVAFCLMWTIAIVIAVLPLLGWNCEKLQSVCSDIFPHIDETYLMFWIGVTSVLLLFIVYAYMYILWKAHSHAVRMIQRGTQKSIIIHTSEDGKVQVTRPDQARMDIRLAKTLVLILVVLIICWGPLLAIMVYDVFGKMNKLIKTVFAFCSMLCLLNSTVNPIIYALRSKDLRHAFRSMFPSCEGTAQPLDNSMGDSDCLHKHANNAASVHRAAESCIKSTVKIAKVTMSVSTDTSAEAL
- Experimental Protocol: Binding assay for CB1 agonists or inverse agonists (SK-N-MC membranes, [3H]-CP-55,940)
- Measurement Setup: read-out: CB1 receptor binding percent inhibition, test concentration 0.5 μM (footnote 10)
Tag: fulfilled if measured inhibition at 0.5 µM is not below 60%, not fulfilled if it is.

Determine whether this compound has inhibition at 0.5 µM no lower than 60%: O=C(NC1CCC1)c1nn(-c2ccc(Cl)cc2Cl)c2c1CCCCC2Cc1ccc(Cl)cc1 (stereo not shown)
not fulfilled

Determine whether this compound has inhibition at 0.5 µM no lower than 60%: O=C(N[C@@H]1c2ccccc2C[C@@H]1O)c1nn(C2CCCCC2)c2c1CCCCC2Cc1ccc(F)cc1 (relative stereo)
fulfilled

Determine whether this compound has inhibition at 0.5 µM no lower than 60%: COC(=O)[C@@H](Cc1ccc(F)cc1)NC(=O)c1nn(-c2ccc(Cl)cc2Cl)c2c1CCCCC2Cc1cccc(Cl)c1 (stereo partly shown)
not fulfilled

Determine whether this compound has inhibition at 0.5 µM no lower than 60%: O=C(N[C@@H]1c2ccccc2C[C@@H]1O)c1nn(C2CCCCC2)c2c1CCCCC2Cc1cccc(F)c1 (single isomer, unassigned)
fulfilled

Determine whether this compound has inhibition at 0.5 µM no lower than 60%: COC(=O)[C@@H](Cc1ccc(O)cc1)NC(=O)c1nn(-c2ccc(Cl)cc2Cl)c2c1CCCCC2Cc1cccc(Cl)c1 (stereo partly shown)
not fulfilled

* * *

- Measurement Target: CB1 receptor (Homo sapiens)
- Construct: expressed in transfected cells
- Experimental Protocol: cell-based
- Measurement Setup: CB1 Receptor Functional Inverse Agonist EC50, forskolin induced β-galactosidase activity, SK-N-MC cells
Endpoint Name: pEC50
Scale for pEC50: -log10 of concentration given in mol/L; no unit attached.

Form field - read-out: pEC50; system: CB1 receptor (Homo sapiens); submitted item: CC12CCC(C1)C(C)(C)[C@H]2NC(=O)c1nn(-c2ccc(F)cc2F)c2c1CCCCC2Cc1cccc(F)c1 (stereo partly shown)
7.05

Form field - read-out: pEC50; system: CB1 receptor (Homo sapiens); submitted item: "O=C(N[C@H](CO)c1ccccc1)c1nn(-c2ccc(Cl)cc2Cl)c2c1CCCC/C2=C\c1ccc(F)cc1"
8.52

Form field - read-out: pEC50; system: CB1 receptor (Homo sapiens); submitted item: O=C(NN1CCCCC1)c1nn(-c2ccc(Cl)cc2Cl)c2c1CCCCC2Cc1cccc(Cl)c1 (stereo not shown)
7.30

Form field - read-out: pEC50; system: CB1 receptor (Homo sapiens); submitted item: "C[C@H](NC(=O)c1nn(-c2ccc(Cl)cc2Cl)c2c1CCCC/C2=C\c1ccc(Cl)cc1)C1CCCCC1"
7.00

* * *

- Measurement Target: CB1 receptor (Homo sapiens, UniProt P21554)
- Construct: expressed in transfected cells
- Experimental Protocol: cell-based
- Measurement Setup: forskolin induced β-galactosidase activity, SK-N-MC cells; read-out: CB1 Receptor Functional Inverse Agonist EC50
Strictly below 300 nM in EC50: Fulfilled. Otherwise: Not fulfilled.

Input C[C@@H](NC(=O)c1nn(C2CCCCC2)c2c1CCCCC2Cc1cccc(Cl)c1)c1ccccc1 (some centres unmarked) ; condition: EC50 strictly below 300 nM. Does it hold?
Not fulfilled

Input C[C@H](NS(=O)(=O)/C=C/c1nn(-c2ccc(F)cc2F)c2c1CCCCC2Cc1cccc(F)c1)C1CCCCC1 (some centres unmarked) ; condition: EC50 strictly below 300 nM. Does it hold?
Fulfilled

Input Cn1nc(/C=C/S(=O)(=O)NN2CCCCC2)c2c1C(Cc1ccc(F)cc1)CCCC2 (centres unmarked) ; condition: EC50 strictly below 300 nM. Does it hold?
Not fulfilled

Input CCOC(=O)[C@H]1C2C=CC(C2)[C@H]1NC(=O)c1nn(-c2ccc(F)cc2F)c2c1CCCCC2Cc1cccc(F)c1 (some centres unmarked) ; condition: EC50 strictly below 300 nM. Does it hold?
Fulfilled

Input C[C@H](NC(=O)c1nn(C2CCCCC2)c2c1CCCCC2Cc1cccc(F)c1)c1ccccc1 (some centres unmarked) ; condition: EC50 strictly below 300 nM. Does it hold?
Not fulfilled

Input "O=C(Nc1ccccn1)c1nn(-c2ccc(Cl)cc2Cl)c2c1CCCC/C2=C\c1ccc(Cl)cc1" ; condition: EC50 strictly below 300 nM. Does it hold?
Fulfilled

Input O=C(NC1CCC1)c1nn(-c2ccc(Cl)cc2Cl)c2c1CCCCC2Cc1ccc(Cl)cc1 (centres unmarked) ; condition: EC50 strictly below 300 nM. Does it hold?
Not fulfilled

Input Cn1nc(/C=C/S(=O)(=O)NN2CCCCC2)c2c1C(Cc1cccc(F)c1)CCCC2 (centres unmarked) ; condition: EC50 strictly below 300 nM. Does it hold?
Not fulfilled

Input O=C(NCc1ccc(C(F)(F)F)cc1)c1nn(-c2ccc(Cl)cc2Cl)c2c1CCCCC2Cc1ccc(Cl)cc1 (centres unmarked) ; condition: EC50 strictly below 300 nM. Does it hold?
Not fulfilled
